Entries annotated with measured LD50
System: stage II naupliar larvae of the barnacle Amphibalanus amphitrite
assay: Toxicity assay with barnacle nauplii
Format: in vivo
assay conditions: Amphibalanus amphitrite (barnacle), stage II naupliar larvae, in vivo
A number alone suffices; assume µg/mL.

{"columns": ["molecule", "assay readout", "assay value"],
 "data": [
  ["C=CCCCCC(C(=O)N1CCCCC1)c1ccc(OC)cc1 (stereo not shown)", "LD50", 9.27],
  ["CCCCC(C(=O)N1CCCCC1)c1ccc(OC)cc1 (stereo not shown)", "LD50", 22.95],
  ["C=CC(=O)Oc1ccc(C(CCCC)C(=O)N2CCCCC2)cc1 (stereo not shown)", "LD50", 6.57]
]}

Q: Given the molecule C=CCCCCC(C(=O)N(C)C)c1ccc(OC)cc1 (stereo not shown) , what is its reported LD50?
Result: 18.61

Q: Return reported LD50; argument: CCCCC(CCCC)C(=O)N1CCCCC1 [Compound 12.2, reference compound]
Result: 9.83

---

Tested on: barnacle cyprids
assay: Settlement assay with barnacle cyprids
Format: in vivo, Amphibalanus amphitrite
assay conditions: Amphibalanus amphitrite, 24 h, anti-settlement, barnacle cyprids, 24 hours; concentration causing 50% reduction in settlement vs controls; read-out: ED50 (the source's name)
Rule: IC50 below 3 µg/mL gives YES. Equal to or above 3 µg/mL gives NO.

Consider the worked cases shown below.
{"columns": ["molecule", "assigned class"],
 "data": [
  ["CCCCC(C(=O)N(C)C)c1ccc(O)cc1 (stereo not drawn)", "NO"],
  ["CCCCC(C(=O)N1CCCCC1)c1ccccc1 (stereo not drawn) [Compound 12.1, reference compound]", "YES"],
  ["CCCCC(C(=O)N1CCCCC1)c1ccc(COC(C)=O)cc1 (stereo not drawn)", "NO"],
  ["C=CCCCCC(C(=O)N(C)C)c1ccc(OC)cc1 (stereo not drawn)", "YES"],
  ["CCCCC(C(=O)N1CCCCC1)c1ccc(OCC(=O)O)cc1 (stereo not drawn)", "NO"],
  ["CCCCC(C(=O)N1CCCCC1)c1cccc(OC)c1 (stereo not drawn)", "YES"],
  ["CCCCC(C(=O)N1CCCCC1)c1ccccc1OC (stereo not drawn)", "YES"],
  ["CCCCC(C(=O)N1CCCCC1)c1cc(OC)cc(OC)c1 (stereo not drawn)", "NO"]
]}

Q: Bench note: check whether C=CCCCCC(C(=O)N1CCCCC1)c1ccc(OC)cc1 (stereo not drawn) shows IC50 below 3 µg/mL
Result: YES

---

Test system: stage II naupliar larvae of the barnacle Amphibalanus amphitrite
assay: Toxicity assay with barnacle nauplii
Assay type: in vivo
assay conditions: Amphibalanus amphitrite (barnacle), stage II naupliar larvae, in vivo
assay readout: LD50

{"columns": ["compound", "assay readout", "assay value"],
 "data": [
  ["CCCCC(C(=O)N1CCCCC1)c1ccc(OCCO)cc1 (stereo not drawn)", "LD50", ">50 µg/mL"]
]}

Q: Consider the compound CCCCC(C(=O)N1CCCCC1)c1ccccc1CO (single isomer, unassigned) and give its measured LD50.
Result: >50 µg/mL

Q: Please look up its LD50: CCCCC(C(=O)N1CCCCC1)c1ccc(COC(C)=O)cc1 (stereo not drawn)
Result: >50 µg/mL

---

System: stage II naupliar larvae of the barnacle Amphibalanus amphitrite
assay: Toxicity assay with barnacle nauplii
Type: in vivo
assay conditions: Amphibalanus amphitrite (barnacle), stage II naupliar larvae, in vivo
assay readout: LD50

{"columns": ["compound", "LD50"],
 "data": [
  ["CCCCC(C(=O)N1CCCCC1)c1cccc(OC)c1 (centres unmarked)", ">25 µg/mL"],
  ["CCCCC(C(=O)N1CCCCC1)c1ccc(OCCOC(C)=O)cc1 (centres unmarked)", ">50 µg/mL"]
]}

Q: Lab note: need LD50 with stage II naupliar larvae of the barnacle Amphibalanus amphitrite for entry CCCCC(C(=O)N(C)C)c1ccc(O)cc1 (centres unmarked) , please look it up.
Result: >50 µg/mL

Q: Tell me reported LD50 for CCCCC(C(=O)N1CCCCC1)c1ccc(C(=O)O)cc1 (centres unmarked) , tested with stage II naupliar larvae of the barnacle Amphibalanus amphitrite.
Result: >50 µg/mL

Q: Can you look up LD50 on stage II naupliar larvae of the barnacle Amphibalanus amphitrite for CCCCC(C(=O)N(C)C)c1ccc(OC)cc1 (centres unmarked) ?
Result: >50 µg/mL
